GI50 values, listed per item
# Test system: T-47D breast
# assayExplanation: NCI tumour cell line growth inhibition, 48 h

Take a look at these entries with their results.
molecule	GI50
CN[C@@H](C)C(=O)N[C@H]1CCS[C@H]2CC(C)(C)[C@@H](C(=O)N[C@H]3c4ccccc4C[C@H]3OCC#CC#CCO[C@@H]3Cc4ccccc4[C@@H]3NC(=O)[C@H]3N4C(=O)[C@@H](NC(=O)[C@H](C)NC)CCS[C@H]4CC3(C)C)N2C1=O	29.9 µM
O=C(Cc1n[nH]c(=O)c2ccccc12)OCc1c(Cl)cccc1Cl	24.6 µM

Item: CC1=C(C(=O)Nc2ccc(F)c(Cl)c2)C(c2cccc(Cl)c2)NC(=S)N1 (centres undefined) | GI50: 42.5 µM

Item: COc1cccc(C2=C(c3cn(C)c4ccc(Cl)cc34)C(=O)NC2=O)c1 | GI50: 4.19 µM

Data origin: PubChem BioAssay (NCI)
